system.name: human ACC2 (Homo sapiens)
Construct: made in house; host or cells: insect cells (baculoviral expression system)
Sequence (O00763 129-2458 limits assumed): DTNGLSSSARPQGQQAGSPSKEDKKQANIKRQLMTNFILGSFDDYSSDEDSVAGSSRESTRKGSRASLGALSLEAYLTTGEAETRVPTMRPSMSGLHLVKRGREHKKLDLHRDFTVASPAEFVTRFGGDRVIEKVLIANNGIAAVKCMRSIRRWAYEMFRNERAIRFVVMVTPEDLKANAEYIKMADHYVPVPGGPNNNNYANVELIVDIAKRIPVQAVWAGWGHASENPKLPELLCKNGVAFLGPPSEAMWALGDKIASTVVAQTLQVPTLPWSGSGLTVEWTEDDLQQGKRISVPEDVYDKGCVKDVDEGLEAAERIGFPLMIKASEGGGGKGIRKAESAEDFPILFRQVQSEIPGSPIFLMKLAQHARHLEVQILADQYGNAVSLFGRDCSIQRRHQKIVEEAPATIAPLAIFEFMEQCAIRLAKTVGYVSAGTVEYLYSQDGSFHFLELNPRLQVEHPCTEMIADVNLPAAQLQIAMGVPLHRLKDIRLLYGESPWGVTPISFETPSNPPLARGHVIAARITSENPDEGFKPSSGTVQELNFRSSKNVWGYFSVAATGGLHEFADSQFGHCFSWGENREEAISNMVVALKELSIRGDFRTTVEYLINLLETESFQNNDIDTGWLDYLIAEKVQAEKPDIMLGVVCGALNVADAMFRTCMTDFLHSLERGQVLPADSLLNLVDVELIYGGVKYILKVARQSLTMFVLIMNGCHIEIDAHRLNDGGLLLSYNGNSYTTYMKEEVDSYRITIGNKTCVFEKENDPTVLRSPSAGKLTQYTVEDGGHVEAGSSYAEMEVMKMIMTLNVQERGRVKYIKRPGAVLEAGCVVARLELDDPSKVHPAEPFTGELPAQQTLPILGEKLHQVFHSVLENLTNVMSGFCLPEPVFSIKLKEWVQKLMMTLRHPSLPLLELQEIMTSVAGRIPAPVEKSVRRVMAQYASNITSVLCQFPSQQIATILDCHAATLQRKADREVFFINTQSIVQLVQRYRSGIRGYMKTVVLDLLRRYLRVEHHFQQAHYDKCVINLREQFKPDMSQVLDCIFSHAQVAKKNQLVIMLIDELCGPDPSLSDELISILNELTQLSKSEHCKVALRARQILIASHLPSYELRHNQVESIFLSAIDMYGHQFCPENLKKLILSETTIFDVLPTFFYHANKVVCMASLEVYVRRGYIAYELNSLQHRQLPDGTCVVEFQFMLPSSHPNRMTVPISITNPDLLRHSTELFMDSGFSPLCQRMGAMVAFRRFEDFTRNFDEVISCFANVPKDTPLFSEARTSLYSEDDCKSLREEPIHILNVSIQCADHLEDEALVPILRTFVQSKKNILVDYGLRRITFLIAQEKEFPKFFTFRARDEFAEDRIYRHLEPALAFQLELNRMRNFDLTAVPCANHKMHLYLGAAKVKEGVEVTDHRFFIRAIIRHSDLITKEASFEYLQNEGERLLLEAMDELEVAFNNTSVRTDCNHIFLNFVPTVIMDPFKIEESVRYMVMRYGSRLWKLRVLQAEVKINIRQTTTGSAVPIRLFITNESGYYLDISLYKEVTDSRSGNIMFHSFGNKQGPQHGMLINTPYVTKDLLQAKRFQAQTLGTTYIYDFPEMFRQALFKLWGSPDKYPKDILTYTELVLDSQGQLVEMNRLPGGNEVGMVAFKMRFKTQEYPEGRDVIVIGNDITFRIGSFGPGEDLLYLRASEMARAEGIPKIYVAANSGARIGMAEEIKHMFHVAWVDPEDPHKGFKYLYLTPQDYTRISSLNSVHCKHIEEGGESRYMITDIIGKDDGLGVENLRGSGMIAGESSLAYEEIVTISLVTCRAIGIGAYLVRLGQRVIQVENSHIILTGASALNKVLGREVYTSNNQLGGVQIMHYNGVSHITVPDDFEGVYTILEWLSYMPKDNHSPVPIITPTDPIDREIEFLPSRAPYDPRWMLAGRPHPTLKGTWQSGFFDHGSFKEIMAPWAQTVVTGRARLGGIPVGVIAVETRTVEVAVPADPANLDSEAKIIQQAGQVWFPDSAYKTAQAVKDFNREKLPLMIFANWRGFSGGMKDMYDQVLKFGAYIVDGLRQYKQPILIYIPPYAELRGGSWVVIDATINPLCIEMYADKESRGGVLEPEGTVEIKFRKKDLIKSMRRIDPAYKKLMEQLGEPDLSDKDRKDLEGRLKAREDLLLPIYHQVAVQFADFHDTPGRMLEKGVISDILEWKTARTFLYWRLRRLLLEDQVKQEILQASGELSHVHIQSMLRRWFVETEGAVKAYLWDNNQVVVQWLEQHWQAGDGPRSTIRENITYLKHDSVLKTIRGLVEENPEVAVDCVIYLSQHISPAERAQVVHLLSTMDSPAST
test: ACC2 assay, spectrophotometric 384 well assay (NADH-linked, coupled lactate dehydrogenase/pyruvate kinase)
Format: biochemical
condition.set: ACC2 assay, hACC2 construct lacking 128 N-terminal amino acids, 25° C., 340 nm; read-out: IC50
pIC50: −log10 of the molar value.
Hi all, reminder that labels come from pIC50, split as zone 1: < 5; zone 2: ≥ 5 and < 6; zone 3: ≥ 6

Hello team, could you let me know which band the following molecule falls into: CCOc1ccc(N2CCC(c3ccc(C(CC)NC(C)=O)cc3)CC2)cc1 (stereo not shown)
zone 2

Hello team, could you let me know which band the following molecule falls into: CC(=O)N[C@@H](C)c1ccc(C2CCN(c3cc(N4CC5CCCC5C4)ncn3)CC2)cc1 (stereo partly shown)
zone 3

Hello team, could you let me know which band the following molecule falls into: COc1ccccc1-c1cnc(N2CCC(c3ccc([C@H](C)NC(C)=O)cc3)CC2)nc1
zone 2

Hello team, could you let me know which band the following molecule falls into: CC(=O)N[C@@H](C)c1ccc(C2CCN(c3ccnc(NCc4ccco4)n3)CC2)cc1
zone 2

Hello team, could you let me know which band the following molecule falls into: CCOc1ccc(N2CCC(c3ccc([C@H](C)NC(=O)C(C)(C)OC)cc3)CC2)cc1
zone 1

Hello team, could you let me know which band the following molecule falls into: CC(=O)N[C@@H](C)c1ccc(C2CCN(c3ccnc(NC(C)c4ccccc4)n3)CC2)cc1 (stereo partly shown)
zone 2

Hello team, could you let me know which band the following molecule falls into: CC(=O)N[C@@H](C)c1ccc(C2CCN(c3cccc(OC4CCC4)c3)CC2)cc1
zone 3

Hello team, could you let me know which band the following molecule falls into: CCOc1cc(N2CCC(c3ccc([C@H](C)NC(=O)OC)cc3)CC2)ccn1
zone 3

Hello team, could you let me know which band the following molecule falls into: CC(=O)N[C@@H](C)c1ccc(C2CCN(c3ncc(-c4cccc(C#N)c4)cn3)CC2)cc1
zone 3

Hello team, could you let me know which band the following molecule falls into: CC(=O)N[C@@H](C)c1ccc(C2CCN(c3ccc(Br)c(C)n3)CC2)cc1
zone 3

Hello team, could you let me know which band the following molecule falls into: CC(=O)N[C@@H](C)c1ccc(C2CCN(c3ncc(C(=O)NCCN4CCCCC4)cn3)CC2)cc1
zone 1

Hello team, could you let me know which band the following molecule falls into: CC(=O)N[C@@H](C)c1ccc(C2CCN(c3ncc(-c4cccc5c4OCC5)cn3)CC2)cc1
zone 3

Hello, the source for this data is patent US9006450B2, in case you need it.
